Tested on: H929 cells
Measurement Notes: Cell viability assay (H929 10 FBS)
Assay type: cell-based
Condition Label: Homo sapiens, NCI-H929, 24 hours, read-out: H929_10FBS IC50
Procedure: Cell Viability Assay (H929 10 FBS) Dispense 10 μL aliquot of prepared H929 cells (1:1 ratio of cells:Trypan Blue (#1450013, Bio-Rad)) onto cell counting slide (#145-0011, Bio-Rad) and obtain cell density and cell viability using cell counter (TC20, Bio-Rad). Remove appropriate volume of resuspended cells from culture flask to accommodate 4000 cells/well @ 10 μL/well. […] Read plates with microplate reader (PheraStar, BMG Labtech) using 384 well luminescence mode.
pIC50: −log10 of the molar value.
Property: pIC50

Some entries whose results are on file:
>>> reading("CC1(C)OC/C=C/[C@H](OC(=O)N[C@@H]2CCOC2)[C@@H]2CC[C@H]2CN2C[C@@]3(CCCc4cc(Cl)ccc43)COc3ccc(cc32)S(=O)(=O)NC1=O [Example 62]")
"> 6.30"
>>> reading("CN(C)[C@@H]1CCN(C(=O)O[C@H]2/C=C/COC(C)(C)C(=O)NS(=O)(=O)c3ccc4c(c3)N(C[C@@H]3CC[C@H]32)C[C@@]2(CCCc3cc(Cl)ccc32)CO4)C1 [Example 53]")
"> 6.30"
>>> reading("CC1(C)OC/C=C/[C@H](OCCN2CCCC2)[C@@H]2CC[C@H]2CN2C[C@@]3(CCCc4cc(Cl)ccc43)COc3ccc(cc32)S(=O)(=O)NC1=O [Example 66]")
"> 6.30"
>>> reading("CO[C@@H]1/C=C\\CN(C)[C@H](C)C(=O)NS(=O)(=O)c2ccc3c(c2)N(C[C@@H]2CC[C@H]21)C[C@@]1(CCCc2cc(Cl)ccc21)CO3 [Example 124]")
"> 6.00"
>>> reading("CC(C)N1CCN(CC2(O)/C=C/COC(C)(C)C(=O)NS(=O)(=O)c3ccc4c(c3)N(C[C@@H]3CC[C@H]32)C[C@@]2(CCCc3cc(Cl)ccc32)CO4)CC1 (stereo partly drawn) [Example 109]")
"< 6.00"

Shifting focus to the compound that follows.
Readout pIC50 for CN(C)CCNC(=O)O[C@H]1/C=C/COC(C)(C)C(=O)NS(=O)(=O)c2ccc3c(c2)N(C[C@@H]2CC[C@H]21)C[C@@]1(CCCc2cc(Cl)ccc21)CO3 [Example 155] , test system H929 cells, was > 6.30

* * *

Study System: MCL-1 (Homo sapiens (Human))
Sequence (Q07820 whole entry): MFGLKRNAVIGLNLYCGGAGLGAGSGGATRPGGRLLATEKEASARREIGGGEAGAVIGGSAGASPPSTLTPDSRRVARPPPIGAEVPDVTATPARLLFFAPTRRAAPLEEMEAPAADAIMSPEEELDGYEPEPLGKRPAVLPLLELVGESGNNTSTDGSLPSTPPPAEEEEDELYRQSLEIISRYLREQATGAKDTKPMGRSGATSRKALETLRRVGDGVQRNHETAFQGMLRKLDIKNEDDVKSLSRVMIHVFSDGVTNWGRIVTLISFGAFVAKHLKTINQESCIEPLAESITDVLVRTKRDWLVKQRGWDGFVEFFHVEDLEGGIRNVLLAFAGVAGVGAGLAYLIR
Measurement Notes: Cell free Mcl-1:Bim affinity assay (fluorescence polarization competition)
Format: binding
Condition Label: 15 nM MCL-1, 5 nM FITC-Bim, 1 hour at room temperature; class symbols; read-out: BIM_Ki
Property: Ki

`COC1CCN(C(=O)O[C@H]2/C=C/CN(C)C3(CCC3)C(=O)NS(=O)(=O)c3ccc4c(c3)N(C[C@@H]3CC[C@H]32)C[C@@]2(CCCc3cc(Cl)ccc32)CO4)CC1` has a reported Ki of < 1 nM

`CN1C/C=C/[C@H](OCCN2CC(F)(F)C2)[C@@H]2CC[C@H]2CN2C[C@@]3(CCCc4cc(Cl)ccc43)COc3ccc(cc32)S(=O)(=O)NC(=O)C1(C)C` has a reported Ki of < 1 nM

`CC1(C)OC/C=C/[C@H](OC(=O)N2CCC2)[C@@H]2CC[C@H]2CN2C[C@@]3(CCCc4cc(Cl)ccc43)COc3ccc(cc32)S(=O)(=O)NC1=O` has a reported Ki of < 1 nM

`CO[C@@H]1/C=C\CN[C@H](C)C(=O)NS(=O)(=O)c2ccc3c(c2)N(C[C@@H]2CC[C@H]21)C[C@@]1(CCCc2cc(Cl)ccc21)CO3` has a reported Ki of 1 to 100 nM

`C[C@@H]1NC(=O)COC[C@@H]2CC[C@H]2CN2C[C@@]3(CCCc4cc(Cl)ccc43)COc3ccc(cc32)S(=O)(=O)NC1=O` has a reported Ki of 1 to 100 nM

Values were extracted from patent US11130769B2.
